Just for reference, PubChem BioAssay (NCI) is where these values come from.

- Test system: EKVX NSCLC
- Assay Details: NCI-60 one-dose screen, 48 h (100 = growth as untreated, 0 = no growth, -100 = all killed)
- Conditions: 10 µM unless noted
This is part of a sample that, as a whole, favours compounds with a hit. Of some 83,000 tested, about 20% had one in any assay. Active and inactive are the calls of the source. The calls were made as follows: active = growth percent below 10; inactive = the rest.
Here the recorded growth is given for each entry.
Experimental Endpoint: growth

>>> measured("C=C(CN=[N+]=[N-])[C@@H]1CC[C@]2(C)[C@H](CC[C@@H]3[C@H]4[C@H]5OC(=O)[C@@]4(CCC5(C)C)CC[C@]32C)[C@@]1(C)CCC#N")
"90.6% [100 µM] (inactive)"
>>> measured("C=C(C)[C@@H]1CC[C@]2(C(=O)OC)CC[C@]3(C)[C@H](CC[C@@H]4[C@@]5(C)CC/C(=N\\OCCC(=NCCC#N)NOCCC#N)C(C)(C)[C@@H]5CC[C@]43C)[C@@H]12")
"53.1% [100 µM] (inactive)"
>>> measured("O=C1CC(c2ccccc2)Cc2nc3ccc(Cl)cc3cc21 (stereo not drawn)")
"30.2% (inactive)"
>>> measured("Nc1ccc(Cl)c([N+](=O)[O-])c1")
"92% (inactive)"
>>> measured("C=C(C)[C@@H]1CC[C@]2(COC(=O)c3ccccc3C(=O)O)CC[C@]3(C)[C@H](CC[C@@H]4[C@@]5(C)CC[C@H](OC(=O)c6ccccc6C(=O)O)C(C)(C)[C@@H]5CC[C@]43C)[C@@H]12")
"39.5% [100 µM] (inactive)"
>>> measured("CCN(CC)CC(C)Nc1ccc(C)c2sc3ccccc3c(=O)c12 (stereo not drawn)")
"81.8% (inactive)"
>>> measured("Cc1nc(-c2ccccc2)sc1CC#N")
"101% (inactive)"
>>> measured("NC(=O)CC1C=CCC1 (stereo not drawn)")
"105% (inactive)"
